Tested on: TRPC4 (transient receptor potential cation channel C4 beta), mouse
TEST: potentiation of DAMGO EC20 TRPC4 response – cell-based, second round, Fluo-4, HEK293 TRPC4beta/mu-opioid, 1 µM, confirmation (AID 2554)
PARTICULARS: DAMGO EC20, Fluo-4 calcium flux, at 1 µM
Active and inactive are the calls of the source.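 The calls were made as follows: active = primary screen hit whose fluorescence ratio, in both repeats, exceeds the weak agonist control mean by 3 SD; inactive = the rest.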
Just give me one of these, please: y (active), n (inactive)

Worked cases, answers included:
compound=Cc1cc(Cl)cc(C)c1OCCCCCn1ccnc1 classification=n
compound=Cn1c(=O)c2c(nc(CN3CCc4ccccc4C3)n2Cc2ccccc2)n(C)c1=O classification=y
compound=C=CCNC(=S)N1CCN(C2CCCCC2)CC1 classification=y
compound=COC(=O)c1ccc(/C=N/N2CCN(Cc3ccc(C)cc3C)CC2)cc1 classification=y
compound=CCOc1cc(/C=C2\CN(CC)C/C(=C\c3ccc(O)c(OCC)c3)C2=O)ccc1O classification=n
compound=CN(CCNC(=O)c1ccc(/C=N/O)nc1)Cc1ccccc1 classification=y
compound="CC(C(=O)c1ccc(Br)cc1)[n+]1cccc(NC(=O)c2ccccc2)c1 (stereo not drawn)" classification=n
compound="COc1cccc(C(=O)OC2CCCN(C)C2)c1 (stereo not drawn)" classification=n
compound=CCOC(=O)c1c(C)oc2ccc(O)c(CN3CCCCC3)c12 classification=n
compound="COc1cccc(C2=NN(C(=O)c3ccco3)C(c3ccco3)C2)c1 (stereo not drawn)" classification=n

Qu. Record request — test call for `CCn1cc(CNCc2cn(-c3ccccc3C)nc2-c2ccc(OC)c(F)c2)cn1`
Ans. n

Qu. Please let me know the test result on file for `O=C(Cc1cccs1)Nc1nc(-c2ccc(F)cc2F)cs1` .
Ans. y

Qu. How did this test come out for `CC(=O)Nc1nc2ccc(S(=O)(=O)N3CCCCC3)cc2s1` ?
Ans. n

Qu. Outcome? CCOC(=O)C(=NC1CCS(=O)(=O)C1)NNc1ccccc1Cl (stereo not drawn)
Ans. n

Qu. What classification did COc1ccc(N/C(C)=C2/C(=O)C(=O)N(CCO)C2c2ccc([N+](=O)[O-])cc2)cc1 (stereo not drawn) end up with in this test?
Ans. y

Qu. Per the records of this test, what outcome belongs to `O=C(COc1cc(Cl)c(Cl)cc1Cl)NCCc1ccccn1` ?
Ans. n

Qu. Answer briefly: the call reported for `Cc1nn(-c2nc3ccccc3n2Cc2ccccc2)c2c1C(=O)CC(C)(C)C2` in this assay.
Ans. n

Qu. Recorded test outcome, item `CSc1nc(N2CCOCC2)c2c3c(sc2n1)CCCC3`
Ans. n

Qu. # lookup: test call for CC(C)Cn1c(CN2CCN(C)C(CCO)C2)nc2ccccc21 (stereo not drawn)
Ans. n

Qu. Short answer needed: outcome of this test for `CCOc1cc(/C=C2\C(=N)N3N=CSC3=NC2=O)ccc1OS(=O)(=O)c1ccccc1` ?
Ans. n

Qu. So what was the verdict on CC(C)Oc1ccccc1C1CC(=O)Nc2cc3c(cc21)OCCO3 (stereo not drawn) in this test?
Ans. n

Qu. How was CC(NC(=O)c1ccccc1NC(=O)CN1CCc2ccccc2C1)c1ccccc1 (stereo not drawn) classified in this test?
Ans. n

Qu. State the result this test recorded for `Cc1ccc(Nc2cc(C)nc3ccc(C)cc23)cc1` .
Ans. n

# credit: PubChem BioAssay
